Parameter folding stability dG unfold: see the listing below.
- Test Summary: folding stability dG unfold (combined trypsin and chymotrypsin); higher = more stable
Write it as a number; the unit kcal/mol goes unstated.

[
  {
    "Seq Text": "SAGGSAGGSASLDPVVVTVTRYPTGVTTTTVSSRPGGEPVTTTTTYDPVSPVAPLPASRLASAGGSAGGSAG [r3_336_JUSTAS]",
    "Quantity": "folding stability dG unfold",
    "Unit Annotation": "kcal/mol",
    "Observed Value": 0.167
  },
  {
    "Seq Text": "SAGMEPVSIKITKIEKTPENKDYVIVTVTPPDGVPTEIKVPIEFYKSGKLKNATAEELVKLFPEYKLESAGG [r19_74_JUSTAS]",
    "Quantity": "folding stability dG unfold",
    "Unit Annotation": "kcal/mol",
    "Observed Value": 2.28
  },
  {
    "Seq Text": "SAGGSAGGMVITFTAPDGTPLGTVEVELPPNNPEAEEEARELAEALRAELEEAGRPVAATVEPASAGGSAGG [r6_884_JUSTAS]",
    "Quantity": "folding stability dG unfold",
    "Unit Annotation": "kcal/mol",
    "Observed Value": 0.309
  },
  {
    "Seq Text": "SAGGSASAPVPTSVSVSVSSDPASGLTTIPTTVTYNGKTFPMSVTTTPSGTVVTKVGGSTFTVPAASAGGSA [r15_507_JUSTAS]",
    "Quantity": "folding stability dG unfold",
    "Unit Annotation": "kcal/mol",
    "Observed Value": -0.0606
  },
  {
    "Seq Text": "SAGGSAGGMKTITIELPPGPVRIRVRLAATGEEVTVEVDAETPTVTITIPEEGAEIVEIEIEPVSAGGSAGG [r6_977_TrROS_Hall]",
    "Quantity": "folding stability dG unfold",
    "Unit Annotation": "kcal/mol",
    "Observed Value": 2.59
  }
]

Problem: Using the record for SKPPSDPGSIEFSFPDSSNVTVTIPVPLPPNTTVSISLSDGKSYTVPGGTTFTFTLPPGKPFTVTVNIRSSA [r9_79_JUSTAS] , state its measured folding stability dG unfold.
Solution: 4.23

Problem: Using the record for SASNKPRTIEVPIMIPPDDLKEHSPEEFIDWIANELGLPPGKDIKIDVDIEPFEHDGRPYYIIPARIQVSAG [r14_334_TrROS] , state its measured folding stability dG unfold.
Solution: -0.231

Problem: Using the record for SAGGSAGGSAGSVTITRDYPTPDGTRTTVTITFPSLERSPSVKYKLVSVSPDGNYVLSPESAGGSAGGSAGG [r11_733_JUSTAS] , state its measured folding stability dG unfold.
Solution: 1.91

* * *

- Test Summary: folding stability dG unfold from chymotrypsin proteolysis; higher = more stable
Please use condition met whenever folding stability dG unfold is not below 0.8 kcal/mol, and condition not met whenever it is.

Answered examples (2):
[
  {
    "Seq Text": "SAGGGKKTKYVLLTFNPKEVKAEDLEKEILKKGAEIYIGDKPIDPGKGVKEVMKANPNTTFLVKIYDSAGGS [r8_38_TrMRF]",
    "Classification": "condition met"
  },
  {
    "Seq Text": "SAGMVIRDPGDGKYIYISPGSGEIEIFNDGKEKKIPFPPGEEMEIEIDPDDGTITITFPNNGRELEIPLSAG [r5_858_TrROS]",
    "Classification": "condition met"
  }
]

Problem: Does folding stability dG unfold meet or surpass 0.8 kcal/mol for SAGGNPRPIELYFPEGKIEKIQEKLREEDGYDVDIQMEQNPDGWFKINITFQDPQRVMDILEKFGITSAGGS [r16_172_TrROS] ?
Solution: condition met

Problem: Does folding stability dG unfold meet or surpass 0.8 kcal/mol for SAGGSAGGSAGLFIPETGLLVVYDPAPGTLHVFRITGGDGLEIEPVGEVEVDPDNPELGTAFSAGGSAGGSA [r18_448_TrMRF] ?
Solution: condition not met

Problem: Does folding stability dG unfold meet or surpass 0.8 kcal/mol for SAEDEYEVELTFEAPLNEPEVIEKIKKELEELGFEIEEVKVEVLEDPKTVKVTLKARVKGIPPEKLKALSAG [r14_956_TrMRF] ?
Solution: condition met

Problem: Does folding stability dG unfold meet or surpass 0.8 kcal/mol for SAGMMLIEVEKNGEPVEVAEVKDDEITITLPKEKVRIRIVNADTGEEVEAEATVEDGTITIKLPPGVKLSAG [r5_469_TrROS_Hall] ?
Solution: condition not met
